system: chimeric Caspase-9 polypeptide; test: Caspase mutant classes and basal activity (Table 3); type: cell-based, human; conditions: class heading of Table 3
Sequence (as listed by the source, change not shown): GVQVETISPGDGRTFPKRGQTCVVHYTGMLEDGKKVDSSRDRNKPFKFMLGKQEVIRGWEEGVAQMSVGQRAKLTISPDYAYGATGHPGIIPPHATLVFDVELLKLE

molecule	Basal Activity
F326K (protein) GFGDVGALESLRGNADLAYILSMEPCGHCLIINNVNFCRESGLRTRTGSNIDCEKLRRRFSSLHFMVEVKGDLTAKKMVLALLELAQQDHGALDCCVVVILSHGCQASHLQFPGAVYGTDGCPVSVEKIVNIFNGTSCPSLGGKPKLFFIQACGGEQKDHGFEVASTSPEDESPGSNPEPDATPFQEGLRTKDQLDAISSLPTPSDIFVSYSTFPGFVSWRDPKSGSWYVETLDDIFEQWAHSEDLQSLLLRVANAVSVKGIYKQMPGCFNFLRKKLFFKTS	Increased
G402I (protein) GFGDVGALESLRGNADLAYILSMEPCGHCLIINNVNFCRESGLRTRTGSNIDCEKLRRRFSSLHFMVEVKGDLTAKKMVLALLELAQQDHGALDCCVVVILSHGCQASHLQFPGAVYGTDGCPVSVEKIVNIFNGTSCPSLGGKPKLFFIQACGGEQKDHGFEVASTSPEDESPGSNPEPDATPFQEGLRTFDQLDAISSLPTPSDIFVSYSTFPGFVSWRDPKSGSWYVETLDDIFEQWAHSEDLQSLLLRVANAVSVKGIYKQMPICFNFLRKKLFFKTS	dead
Y153F (protein) GFGDVGALESLRGNADLAFILSMEPCGHCLIINNVNFCRESGLRTRTGSNIDCEKLRRRFSSLHFMVEVKGDLTAKKMVLALLELAQQDHGALDCCVVVILSHGCQASHLQFPGAVYGTDGCPVSVEKIVNIFNGTSCPSLGGKPKLFFIQACGGEQKDHGFEVASTSPEDESPGSNPEPDATPFQEGLRTFDQLDAISSLPTPSDIFVSYSTFPGFVSWRDPKSGSWYVETLDDIFEQWAHSEDLQSLLLRVANAVSVKGIYKQMPGCFNFLRKKLFFKTS	Decreased
D327K (protein) GFGDVGALESLRGNADLAYILSMEPCGHCLIINNVNFCRESGLRTRTGSNIDCEKLRRRFSSLHFMVEVKGDLTAKKMVLALLELAQQDHGALDCCVVVILSHGCQASHLQFPGAVYGTDGCPVSVEKIVNIFNGTSCPSLGGKPKLFFIQACGGEQKDHGFEVASTSPEDESPGSNPEPDATPFQEGLRTFKQLDAISSLPTPSDIFVSYSTFPGFVSWRDPKSGSWYVETLDDIFEQWAHSEDLQSLLLRVANAVSVKGIYKQMPGCFNFLRKKLFFKTS	Increased
D330N (protein) GFGDVGALESLRGNADLAYILSMEPCGHCLIINNVNFCRESGLRTRTGSNIDCEKLRRRFSSLHFMVEVKGDLTAKKMVLALLELAQQDHGALDCCVVVILSHGCQASHLQFPGAVYGTDGCPVSVEKIVNIFNGTSCPSLGGKPKLFFIQACGGEQKDHGFEVASTSPEDESPGSNPEPDATPFQEGLRTFDQLNAISSLPTPSDIFVSYSTFPGFVSWRDPKSGSWYVETLDDIFEQWAHSEDLQSLLLRVANAVSVKGIYKQMPGCFNFLRKKLFFKTS	Decreased
